- system: T1, Fusion protein of LAG-3 extracellular region and hIgG1 Fc (human)
- T1 construct: Limits of the signal peptide are marked only by lost underlining; also called LAG-3-Fc; LAG-3-Fc fusion protein
- T1 sequence (chain, as listed by the source limits assumed): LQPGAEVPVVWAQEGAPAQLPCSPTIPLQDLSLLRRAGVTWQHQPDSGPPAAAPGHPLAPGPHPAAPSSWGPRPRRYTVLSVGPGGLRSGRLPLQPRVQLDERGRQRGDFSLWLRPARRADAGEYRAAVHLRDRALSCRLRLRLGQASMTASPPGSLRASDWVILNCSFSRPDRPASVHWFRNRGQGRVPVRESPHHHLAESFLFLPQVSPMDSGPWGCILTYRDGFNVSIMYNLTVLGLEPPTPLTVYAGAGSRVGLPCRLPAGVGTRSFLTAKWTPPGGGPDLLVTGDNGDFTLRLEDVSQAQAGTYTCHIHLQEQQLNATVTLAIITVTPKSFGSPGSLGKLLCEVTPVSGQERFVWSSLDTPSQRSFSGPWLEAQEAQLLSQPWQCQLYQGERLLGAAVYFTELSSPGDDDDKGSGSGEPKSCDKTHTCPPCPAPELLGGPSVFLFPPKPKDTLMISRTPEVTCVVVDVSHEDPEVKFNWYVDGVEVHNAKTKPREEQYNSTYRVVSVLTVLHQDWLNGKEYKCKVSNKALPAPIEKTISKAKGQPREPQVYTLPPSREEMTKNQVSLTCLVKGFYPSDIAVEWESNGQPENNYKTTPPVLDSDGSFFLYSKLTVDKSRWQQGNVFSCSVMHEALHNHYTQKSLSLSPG
- assay.info: competition: biotin-LAG-3-Fc binding to fixed Daudi cells, antibody titrated
Just a reminder that ties go to Not satisfied: only IC50 strictly below 0.6 nM counts as Satisfied.

1) Hu229-011 (antibody, human IgG4 S228P, kappa, V domains shown, Humanized mAb229) VH: QVQLVQSGSELKKPGASVKVSCKASGYTFTTSGMSWVRQAPGQGLKWMGWINTYSGVPTYADDFKGRFVFSLDTSVSTAYLQISSLKAEDTAVYYCARDNYDARDVYYYAMDYWGQGTTVTVSS VL: DIQMTQSPSSLSASVGDRVTITCRASENIYSNLAWYQQKPGKSPKLLVYAATNLADGVPSRFSGSGSGTQYTLTISSLQPEDFATYYCQHFWITPWTFGGGTKVEIKR: Satisfied
2) Hu303-014 (antibody, human IgG4 S228P, kappa, V domains shown, Humanized mAb303) VH: QVQLVQSGAEVKKPGASVKVSCKASGYTLTDYYMNWVRQAPGQRLEWMGVINPYNGDTAYNQKFKGRVTITVDKSASTAYMELSSLRSEDTAVYYCTRDDGYYDYYFDVWGQGTTVTVSS VL: DIQMTQSPSSLSASVGDRVTITCRASQDIGSRLNWYQQKPGKAPKLLIYATSTLDSGVPSRFSGSGSGTDFTLTISSLQPEDFATYYCLQLASSPPTFGGGTKVEIKR: Satisfied
3) Hu303-005 (antibody, human IgG4 S228P, kappa, V domains shown, also called LAG-3 antibody Hu303-005; LAG3 antibody Hu303-005) VH: QVQLVQSGAEVKKPGASVKVSCKASGYTFTDYYMNWVRQAPGQRLEWMGVINPYNGDTAYNQKFKGRVTITRDTSASTAYMELSSLRSEDTAVYYCARDDGYYDYYFDVWGQGTTVTVSS VL: DIQMTQSPSSLSASVGDRVTITCRASQDIGSRLNWYQQKPGKAPKRLIYATSTLDSGVPSRFSGSRSGTDFTLTISSLQPEDFATYYCLQLASSPPTFGGGTKVEIKR: Not satisfied
4) Hu303-004 (antibody, human IgG4 S228P, kappa, V domains shown, Humanized mAb303) VH: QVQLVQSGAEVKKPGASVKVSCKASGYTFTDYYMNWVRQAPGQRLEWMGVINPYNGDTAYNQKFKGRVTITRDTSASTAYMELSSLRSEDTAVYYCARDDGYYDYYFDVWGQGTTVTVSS VL: DIQMTQSPSSLSASVGDRVTITCRASQDIGSRLNWYQQKPGKAPKLLIYATSTLDSGVPSRFSGSGSGTDFTLTISSLQPEDFATYYCLQLASSPPTFGGGTKVEIKR: Satisfied
5) Hu229-010 (antibody, human IgG4 S228P, kappa, V domains shown, Humanized mAb229) VH: QVQLVQSGSELKKPGASVKVSCKASGYTFTTSGMSWVRQAPGQGLKWMGWINTYSGVPTYADDFKGRFVFSLDTSVSTAYLQISSLKAEDTAVYYCARDNYDARDVYYYAMDYWGQGTTVTVSS VL: DIQMTQSPSSLSASVGDRVTITCRASENIYSNLAWYQQKPGKAPKLLVYAATNLADGVPSRFSGSGSGTQYTLTISSLQPEDFATYYCQHFWITPWTFGGGTKVEIKR: Satisfied
